// reported EC50 for each item listed
target: purified biotin-tagged human CD36 (human, UniProt P16671 30-439, limits assumed, biotin tag, site not stated); assay: AlphaScreen competition; competitor FA6-152 on acceptor beads
Sequence (P16671 30-439 limits assumed): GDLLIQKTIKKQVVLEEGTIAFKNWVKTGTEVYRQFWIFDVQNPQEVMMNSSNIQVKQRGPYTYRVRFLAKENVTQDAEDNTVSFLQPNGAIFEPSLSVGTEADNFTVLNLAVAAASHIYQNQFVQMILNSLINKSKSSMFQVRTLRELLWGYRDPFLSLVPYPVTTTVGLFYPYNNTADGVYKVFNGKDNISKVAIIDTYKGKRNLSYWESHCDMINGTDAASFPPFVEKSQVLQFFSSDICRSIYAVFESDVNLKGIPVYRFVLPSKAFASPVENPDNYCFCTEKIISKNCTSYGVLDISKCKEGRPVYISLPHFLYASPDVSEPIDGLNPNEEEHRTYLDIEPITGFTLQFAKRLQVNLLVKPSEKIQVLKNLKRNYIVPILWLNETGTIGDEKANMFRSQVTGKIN
Note: unit nM is implicit; provide only the numeric part.

Worked examples follow.
Binder	Measured Number
4G04 (antibody, human IgG1, V domains shown, Chimeric: mouse variable regions on human IgG1 LALA (L234A/L235A); also called 04G04; 004G04) VH: QVQLQQPGSELRSPGSSVKLSCKDFDSEVFPIAYMTWVRQKPGHGFEWIGDILPSIGGTIYGEKFEDKATLDADTVSNTAYLELNSLTSEDSAIYYCARDYYGSSYGYFDVWGAGTAVTVSS VL: DIVLTQSQKFMSTSVGDRVSVTCKASQNVGTNVAWYQQKPGQSPKALIYSASYRYSGVPDRFTGSGSGTDFTLTISNVQSEDLAEYFCQQYNSYPYTFGGGTKLEIK	9.89
6G04 (antibody, human IgG1, V domains shown, Chimeric: mouse variable regions on human IgG1 LALA (L234A/L235A); also called 06G04; 006G04) VH: QVQLQQSGAELVMPGASVKMSCKASGYTFTDYWMHWVKQRPGQGLEWIGSIDTSDSYTTYSQKFKGKATLTVDESSSTAYMELARLTSEDSAIYYCVRGEDYEGTWFAYWGQGTLVTVSA VL: ETTVTQSPASLSVATGEKVTIRCITSTDIDDDMNWYQQKPGEPPKLLISEGNTLRPGVPSRFSSSGYGTDFVFTIENTLSEDVADYYCLQSDNMPLTFGAGTKLELK	1040

--- query ---
Could you share which EC50 value was measured for 27G04 (antibody, human IgG1, V domains shown, Chimeric: mouse variable regions on human IgG1 LALA (L234A/L235A)) VH: EVQLQQSGAELLKPGASVKISCKTTGYTFSNYWIEWVKQRPGHGLEWIGEILPGSGSPKYNEKFKGKATLTADTSSNTAFMQLSSLTSEDSAVYYCAPFILENYFDYWGQGTTLTVSS VL: DIQMTQSHKFMSTSVGDRVSITCKASQDVSTAVAWYQQKPGQSPKLLIYSASYRYTGVPDRFTGSGSGTDFTFTISSVQAEDLAVYYCQQHYSTPRTFGGGTKLEIK ? 1.8
